// data source = PubChem BioAssay AID493201

assay: qHTS Assay for Identifying a Potential Treatment of Ataxia-Telangiectasia: Secondary assay (no NCS) hit validation; details: A-T patient fibroblasts, AlphaLISA, no DNA damage added, 90 min; series mostly up to 76.9 µM;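 also: phosphorylated KAP1 signal as a proxy for ATM-like kinase activity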
Inconclusive results are not listed. Active and inactive are the calls of the source. Calls follow the shape of the dose curve; as a rule, active = well fitted activation curve with a large enough effect; inconclusive = small, poorly fitted or top-dose-only effect; inactive = no such curve, though single readings can be large or run the other way.
Outcomes you can answer with include only these: 1 = active, 0 = inactive

Completed entries (count: 5):
COc1ccc(C2NC(=S)NC3=C2N2CCC3CC2)cc1 (stereo unspecified); 1
CC1=NOC2(C1)N(C)c1ccccc1C2(C)C (stereo unspecified); 0
Clc1cccc(Cl)c1CSc1nnc(-c2ccncc2)s1; 1
Nc1ccc2ncccc2c1; 0
NC(=O)C1CCN(Cc2nc3cc(C(F)(F)F)ccc3c(=O)[nH]2)CC1; 0

Moving on to another compound below.
Identify the outcome logged in this assay for the compound shown: CCOC(=O)Cn1c(-c2ccccc2)cc(SC)c(C#N)c1=O
0

---

assay: qHTS Assay for Identifying a Potential Treatment of Ataxia-Telangiectasia: Secondary assay (no NCS) hit validation; details: A-T patient fibroblasts, AlphaLISA, no DNA damage added, 90 min; series mostly up to 76.9 µM;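 also: phosphorylated KAP1 signal as a proxy for ATM-like kinase activity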
Results filed as inconclusive are left out. Active and inactive are the calls of the source. Calls follow the shape of the dose curve; as a rule, active = well fitted activation curve with a large enough effect; inconclusive = small, poorly fitted or top-dose-only effect; inactive = no such curve, though single readings can be large or run the other way.
Use one of these outcomes when replying: active, inactive

Example entries and their recorded answers appear below.
O=C(/C(=C/c1ccc(Cl)cc1)c1nc2ccccc2[nH]1)c1cccs1; inactive
CCn1c2ccccc2c2c3ncc4cccn4c3ccc21; active
C=CCOC(=O)C1=C[C@H](c2coc3ccccc3c2=O)C[C@H](OCc2ccc(CO)cc2)O1; inactive

Returns: the outcome recorded for O=C(Nc1cc(S(=O)(=O)N2CCOCC2)ccc1Cl)c1cc(=O)c2ccccc2o1 in this assay.
inactive

Called result for CCN1CCN(CC(=O)Nc2ccc(C(C)=O)cc2)CC1
active

// param item: c1ccc2c(c1)nc(Nc1ccc(N3CCCCC3)cc1)c1nncn12 ; yields the recorded call
inactive

Answer briefly: the call reported for N#C/C(=C/c1ccc(F)cc1)C(N)=S in this assay.
inactive

Could you check what this test reported for COc1ccccc1N1CCN(C(=O)c2cc(=O)c3c(C)cc(C)cc3o2)CC1 ?
inactive

Which outcome was assigned to COc1ccccc1S(=O)(=O)Nc1ccc(-c2nnc3n2CCCCC3)cc1 in this test?
inactive

State the result this test recorded for Cc1ccc(C2(C)NC(=O)N(CC(=O)Nc3ccccc3N3CCCC3)C2=O)cc1 (stereo unspecified) .
inactive

// param item: COC(=O)c1cccc2c1-c1ccccc1/C2=N\NC(N)=O ; yields the recorded call
inactive

What call does the record list for COc1ccc(N2CCN(C(=O)c3cc4cc(Cl)ccc4[nH]3)CC2)cc1 ?
inactive

Entry CCOC(=O)C1CCN(C(=O)c2cc3cc(Cl)ccc3[nH]2)CC1 : call = ?
inactive

---

experiment: qHTS Assay for Identifying a Potential Treatment of Ataxia-Telangiectasia: Secondary assay (no NCS) hit validation; details: A-T patient fibroblasts, AlphaLISA, no DNA damage added, 90 min; series mostly up to 76.9 µM;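 also: phosphorylated KAP1 signal as a proxy for ATM-like kinase activity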
Inconclusive results are not listed. The source made the active and inactive calls. Calls come from the whole dose curve; as a rule, active = well fitted activation curve with a large enough effect; inconclusive = small, poorly fitted or top-dose-only effect; inactive = no such curve, though single readings can be large or run the other way.
Assign a class; possible classes are active, inactive

# example entries with known answers
O=C(O)CCCN1C(=O)/C(=C/C=C/c2ccco2)SC1=S; inactive
CCN1C/C(=C/c2sccc2C)c2nc3ccccc3c(C(=O)O)c2C1; active
CCOc1ccc(NC2=NCC(=O)N2Cc2cccs2)cc1; inactive
Cc1ccnc(NC(=O)c2ccccc2NC(=O)c2ccccc2)c1; inactive
COc1ccccc1Nc1nc(NCCCN(C)C)nc(N)c1[N+](=O)[O-]; active

Could you now consider this next compound?
State the result this test recorded for CCn1c(SCc2cccc(F)c2)nnc1-c1ccncc1 .
inactive

---

assay: qHTS Assay for Identifying a Potential Treatment of Ataxia-Telangiectasia: Secondary assay (no NCS) hit validation; details: A-T patient fibroblasts, AlphaLISA, no DNA damage added, 90 min; series mostly up to 76.9 µM;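 also: phosphorylated KAP1 signal as a proxy for ATM-like kinase activity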; also: potency is read from the fitted curve at half-maximal effect
Inconclusive results are not listed. Calls of active or inactive are those of the source. Calls come from the whole dose curve; as a rule, active = well fitted activation curve with a large enough effect; inconclusive = small, poorly fitted or top-dose-only effect; inactive = no such curve, though single readings can be large or run the other way.
Measured Property: Potency

# count of solved cases: 5
CCC(=O)c1ccc2c(c1)OCCO2; inactive
O=C(NC12CC3CC(CC(C3)C1)C2)c1cccc(OC(F)F)c1; inactive
CCOc1ccccc1CNC(=O)Cn1c(=O)oc2ccccc21; 32.8 µM (active)
O=C(NCCCN1CCOCC1)c1ccc2c(c1)N(Cc1cccc(F)c1)C(=O)c1ccccc1S2; inactive
O=C(C[n+]1cccc2ccccc21)c1ccc(NC(=O)c2ccccc2)cc1; inactive

Record Potency per entry; entries follow.
1. O=C1C2C3C=CC(CC3)C2C(=O)N1c1cccc(Br)c1 (configuration not stated)
2. CCCCn1c2c(c(=N)c3ccccc31)CCC2
3. CC(=O)Nc1ccc(NC2=CC(=O)c3ccccc3C2=O)cc1
4. NCC(=O)c1cccc2ccc[n+]([O-])c12
5. CN(C)C(=O)CN(C)S(=O)(=O)c1ccc(Cl)cc1

inactive
inactive
inactive
inactive
inactive

Please state, for each entry, its recorded Potency.
1. CC(=O)NNC(=O)CN1C(=O)/C(=C/c2ccccc2)SC1=S
2. CNC(=O)c1ccc(-c2sc3nc(N4CCOCC4)c4c(c3c2N)CC(C)(C)OC4)o1

["inactive", "29.2 µM (active)"]

---

assay: qHTS Assay for Identifying a Potential Treatment of Ataxia-Telangiectasia: Secondary assay (no NCS) hit validation; conditions: A-T patient fibroblasts, AlphaLISA, no DNA damage added, 90 min; series mostly up to 76.9 µM;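 also: phosphorylated KAP1 signal as a proxy for ATM-like kinase activity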
Inconclusive results are not listed. Calls of active or inactive are those of the source. Calls come from the whole dose curve; as a rule, active = well fitted activation curve with a large enough effect; inconclusive = small, poorly fitted or top-dose-only effect; inactive = no such curve, though single readings can be large or run the other way.
Respond using exactly one of the listed classes: active, inactive

COc1cccc(OC)c1C(=O)NC(=O)Nc1c(C)cccc1C; inactive
COc1cc(/C=C2\CCOC2=O)cc(OC)c1OC; inactive
O=C(C(c1ccccc1)c1ccccc1)N1CC[C@@]2(O)CCCC[C@H]2C1; inactive
CCOc1ccc(C(=O)NC(=S)Nc2cccnc2)cc1[N+](=O)[O-]; inactive

Short answer needed: outcome of this test for Cc1nn(-c2ccccc2)c2nc(C(Cl)(Cl)Cl)[nH]c(=O)c12 ?
inactive

What classification did CNC(=S)N(CCc1c(C)[nH]c2ccc(Cl)cc12)Cc1cccnc1 end up with in this test?
inactive

Can you look up the reported call for COC(=O)c1ccc2[nH]c3cccc(/C(=C/c4ccccc4)c4ccccc4)c3c2c1 for me?
inactive

Assay result, entry CCOC(=O)C1=C(C)N(c2ccc(OC)cc2)C(=O)/C1=C\c1ccc(O)c(OCC)c1 — outcome?
inactive

Dear all, I need the recorded test outcome for CC(C)(C)NC(=O)c1cccc2c1-c1ccccc1C2=O , thank you.
inactive

Outcome logged for OC1(CC#CCN2CCCCC2)c2ccccc2-c2ccccc21 in this assay:
inactive

---

assay: qHTS Assay for Identifying a Potential Treatment of Ataxia-Telangiectasia: Secondary assay (no NCS) hit validation; details: A-T patient fibroblasts, AlphaLISA, no DNA damage added, 90 min; series mostly up to 76.9 µM;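 also: phosphorylated KAP1 signal as a proxy for ATM-like kinase activity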
Results filed as inconclusive are left out. Active and inactive are the calls of the source. The call rests on the fitted dose curve; in most records, active means well fitted activation curve with a large enough effect; inconclusive means small, poorly fitted or top-dose-only effect; inactive means no such curve, though single readings can be large or run the other way.
Log the outcome using a class from 1 = active, 0 = inactive

Before answering, review these 3 worked examples.
COc1cccc(CN(C)CC(=O)NCc2ccc(F)cc2)c1OC; 0
COc1ccc(-c2cc(C(F)(F)F)c(C#N)c(SCC(=O)O)n2)cc1OC; 0
COc1ccccc1[C@H]1C(c2cccc(Cl)c2)=NN(c2ccccc2)[C@@H]1CO; 0

GET /call?item= O=C(c1ccc(F)cc1)c1ccc(N2CCCCC2)cc1 returns the recorded outcome of this test.
0

---

assay: qHTS Assay for Identifying a Potential Treatment of Ataxia-Telangiectasia: Secondary assay (no NCS) hit validation; details: A-T patient fibroblasts, AlphaLISA, no DNA damage added, 90 min; series mostly up to 76.9 µM;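 also: phosphorylated KAP1 signal as a proxy for ATM-like kinase activity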
Inconclusive results are not listed. Calls of active or inactive are those of the source. Calls follow the shape of the dose curve; as a rule, active = well fitted activation curve with a large enough effect; inconclusive = small, poorly fitted or top-dose-only effect; inactive = no such curve, though single readings can be large or run the other way.
# output must be one of active, inactive

Observe how each entry below is paired with its result.
Cc1ccccc1S(=O)(=O)Oc1ccc2ccc(O)cc2c1; inactive
COC(=O)Cc1ccc(NC(=S)NCCSc2ccc(Cl)cc2)cc1; inactive
Cc1c(Cc2ccccc2)c(NCCCO)n2c(nc3ccccc32)c1C#N; inactive

Recorded test call requested for CCC12CN(C(=O)c3ccc([N+](=O)[O-])cc3)CC(CC)(CN(C(=O)c3ccc([N+](=O)[O-])cc3)C1)C2=O
active

---

experiment: qHTS Assay for Identifying a Potential Treatment of Ataxia-Telangiectasia: Secondary assay (no NCS) hit validation; settings: A-T patient fibroblasts, AlphaLISA, no DNA damage added, 90 min; series mostly up to 76.9 µM;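 also: phosphorylated KAP1 signal as a proxy for ATM-like kinase activity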
Results filed as inconclusive are left out. Activity calls are given as the source filed them. Calls come from the whole dose curve; as a rule, active = well fitted activation curve with a large enough effect; inconclusive = small, poorly fitted or top-dose-only effect; inactive = no such curve, though single readings can be large or run the other way.
Result category, one only: true for active, false for inactive

CC(=O)c1ccc([N+](=O)[O-])c(CS(=O)(=O)c2ccc(Cl)cc2)c1; false

I would be grateful if you could indicate the recorded call for CCCCN(c1nc2ccccc2nc1Cl)S(=O)(=O)c1ccc(C)cc1 .
false

# fetch the recorded call for O=C1/C(=C/c2ccc(N3CCOCC3)o2)SC(=Nc2ccccc2)N1CCc1c[nH]c2ccccc12 here
false

---

experiment: qHTS Assay for Identifying a Potential Treatment of Ataxia-Telangiectasia: Secondary assay (no NCS) hit validation; conditions: A-T patient fibroblasts, AlphaLISA, no DNA damage added, 90 min; series mostly up to 76.9 µM;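 also: phosphorylated KAP1 signal as a proxy for ATM-like kinase activity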
Records with an inconclusive call do not appear. Activity calls are given as the source filed them. Calls come from the whole dose curve; as a rule, active = well fitted activation curve with a large enough effect; inconclusive = small, poorly fitted or top-dose-only effect; inactive = no such curve, though single readings can be large or run the other way.
Hi there, use one of these labels in your reply, thanks! active, inactive

COc1cc(CCC(=O)OCC(=O)N2CCc3ccccc32)cc(OC)c1OC; inactive
CC(C)(CN1CCN(c2ccccc2)CC1)NS(=O)(=O)c1ccccc1; inactive
CC(=O)c1sc2nc(C)c3c(c2c1N)CCCC3; inactive

# fetch the recorded call for CCOC(=O)c1[nH]c(COC(=O)c2ccccc2NC(=O)c2ccco2)c(C(=O)OCC)c1C here
inactive

Test call, this molecule: COc1ccc(CCn2c(S)nc3ccccc3c2=O)cc1
active

Fill in: this test's call for CN(C)c1ccc2nc3ccc(=[N+](C)C)cc-3sc2c1 is ___
active

Per the records of this test, what outcome belongs to CN(C)c1cc(Nc2ccc(O)cc2)c([N+](=O)[O-])c2nonc12 ?
inactive

Recorded test call requested for CCOc1cccc(C(=O)Nc2ccccc2N2CCN(C(=O)C(C)C)CC2)c1
inactive

So what was the verdict on CC12CCC(C(=O)NNc3ccc([N+](=O)[O-])cc3)(OC1=O)C2(C)C (stereo not given) in this test?
inactive

// param item: O=C(N/N=C/c1ccncc1)c1ccc(COc2cccc3cccnc23)cc1 ; yields the recorded call
inactive

Query: recorded result category for Cc1nc(Nc2ccc(Cl)cc2)c2oc3ccccc3c2n1 in this test
inactive

Hey, what did the test say about O=C(CCC(=O)c1ccc(F)cc1)Nc1cccc(Br)c1 ?
inactive

Which outcome was assigned to COCCCNC(=O)c1c[nH]c2ccc(S(=O)(=O)N(C)c3ccccc3C)cc2c1=O in this test?
inactive

Which outcome did this test record for the molecule O=C(CSc1nnc(CNC(=O)c2ccccc2)o1)NCCc1ccccc1 ?
inactive

What did this assay record as the result for CC(C)NC(=O)c1ccc(COc2ccc(C(C)(C)C)cc2)o1 ?
inactive

What is the recorded call for this molecule in the test? CCc1oc(C(=O)OC)cc1CSC(=N)N
inactive

Called result for Cc1nnc(SCC(=O)NC(=O)Nc2ccc3c(c2)OCCO3)n1N
inactive

What outcome does the record of this test show for O=C(O)CCC(=O)NN1C(=O)c2ccccc2NC1c1ccco1 (stereo not given) ?
inactive

Record lookup: outcome of this test for CCC[C@H]1CCCC/C=C\CCCC(=O)OCCN1C(=O)OC(C)(C)C ?
inactive
